# system-name: Adenosine kinase (Homo sapiens)
# Sequence (P55263 whole entry): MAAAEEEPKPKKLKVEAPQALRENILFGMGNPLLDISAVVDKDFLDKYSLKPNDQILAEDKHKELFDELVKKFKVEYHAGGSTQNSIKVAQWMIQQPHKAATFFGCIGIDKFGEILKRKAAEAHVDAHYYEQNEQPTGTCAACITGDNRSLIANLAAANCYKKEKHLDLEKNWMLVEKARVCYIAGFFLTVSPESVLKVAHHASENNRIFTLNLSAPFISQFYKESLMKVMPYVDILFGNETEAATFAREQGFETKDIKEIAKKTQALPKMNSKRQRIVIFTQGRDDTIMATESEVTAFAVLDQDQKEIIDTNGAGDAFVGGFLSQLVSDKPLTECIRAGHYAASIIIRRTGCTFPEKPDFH
# procedure-summary: Inhibitory activity against Human Recombinant Adenosine Kinase
quantity: IC50 (nM)

Solved entries (count: 2):
OC[C@H]1O[C@@H](n2c(Cl)nc3c(Nc4ccccc4)ncnc32)[C@H](O)[C@@H]1O ... 3600
CSc1nc2c(N3CCc4ccccc43)ncnc2n1[C@@H]1O[C@H](CO)[C@@H](O)[C@H]1O ... 150

[A] C=Cc1nc2c(N3CCc4ccccc43)ncnc2n1[C@@H]1O[C@H](CO)[C@@H](O)[C@H]1O
[B] CSc1nc2c(Nc3ccccc3)ncnc2n1[C@@H]1O[C@H](CO)[C@@H](O)[C@H]1O
[C] C[C@H]1O[C@@H](n2c(Nc3ccccc3)nc3c(N4CCc5ccccc54)ncnc32)[C@H](O)[C@@H]1O
(Q) Falling order of IC50, please. Thanks in advance for listing the labels in the requested order.
(A) B, C, A
(B: 1000 nM, C: 200 nM, A: 60 nM)
